Item-by-item account of Conversion at t30 (depletion of electrophile signal)
protocolDetails: NMR method: depletion of electrophile signal on reaction with DCYA
appliedConditions: at 30 min; 1 equiv. DCYA
experimentalEndpoint: Conversion at t30 (depletion of electrophile signal) (%)

{"molecule": "C=C(C)[C@@H]1CC=C(C)C(=O)C1", "recordedMeasurement": 16}
{"molecule": "O=CC=Cc1ccccc1", "recordedMeasurement": 50}
{"molecule": "C=CC(=O)OCC [Ethyl acrylate]", "recordedMeasurement": 92}
{"molecule": "Oc1ccc(O)cc1 [p-Hydroquinone]", "recordedMeasurement": 5}
{"molecule": "CC1=C(C=O)C(C)(C)CC=C1", "recordedMeasurement": 3}
{"molecule": "OCCc1ccc(O)c(O)c1 [3-Hydroxytyrosol]", "recordedMeasurement": 6}
{"molecule": "C=C(C)[C@@H]1CCC2=CC(=O)C[C@@H](C)[C@]2(C)C1", "recordedMeasurement": 0}
{"molecule": "C=C(C)C1CC=C(C=O)CC1 (stereo not drawn)", "recordedMeasurement": 28}
{"molecule": "O=C1C=CC(=O)C=C1", "recordedMeasurement": 95}

====

protocolDetails: Microplate spectrophotometric method (DCYA assay), fluorescence end-point
appliedConditions: true positive; positive if 100-RI <95
Quick list: DCYA binary classification: TP per entry.
experimentalEndpoint: DCYA binary classification: TP

{"compound": "O=C1C=CC(=O)C=C1 [p-Benzoquinone]", "recordedMeasurement": 1}
{"compound": "C=C(C)C1CC=C(C=O)CC1 (stereo not shown) [Perillaldehyde]", "recordedMeasurement": 0}
{"compound": "O=C1CCO1 [Propionolactone]", "recordedMeasurement": 1}
{"compound": "O=C(O)c1ccccc1O [Salicylic acid]", "recordedMeasurement": 0}
{"compound": "CCCCBr [1-Bromobutane]", "recordedMeasurement": 0}
{"compound": "CC=CC(=O)CC [4-Hex-3-en-one]", "recordedMeasurement": 1}
{"compound": "Clc1ccccc1 [Chlorobenzene]", "recordedMeasurement": 0}
{"compound": "CCC/C=C/C=O [trans-2-Hexenal]", "recordedMeasurement": 1}
{"compound": "O=Cc1ccccc1 [Benzaldehyde]", "recordedMeasurement": 0}
{"compound": "O=C(O)C(=O)O [Oxalic acid]", "recordedMeasurement": 0}
{"compound": "CC(O)C(=O)O (stereo not shown) [Lactic acid]", "recordedMeasurement": 0}
{"compound": "CC/C=C\\CCCCC=O [cis-6-Nonenal]", "recordedMeasurement": 0}
{"compound": "CC(C)=CCCC(C)=CC=O [Citral]", "recordedMeasurement": 1}
{"compound": "CC(C=O)Cc1ccc(C(C)(C)C)cc1 (stereo not shown) [Lilial]", "recordedMeasurement": 0}
{"compound": "C=CC(=O)OCC [Ethyl acrylate]", "recordedMeasurement": 1}
{"compound": "COc1cc(C=O)ccc1O [Vanillin]", "recordedMeasurement": 0}

====

Listed next: entries and their corresponding DCYA binary classification: TN.
protocolDetails: Microplate spectrophotometric method (DCYA assay), fluorescence end-point
appliedConditions: true negative
experimentalEndpoint: DCYA binary classification: TN

{"compound": "COc1cc(C=O)ccc1O", "recordedMeasurement": 1}
{"compound": "CC=CC(=O)CC", "recordedMeasurement": 0}
{"compound": "Clc1ccccc1", "recordedMeasurement": 1}
{"compound": "C=C1C(=O)O[C@@H]2/C=C(\\C)CC/C=C(\\C)CC[C@@H]12 [Costunolide]", "recordedMeasurement": 0}
{"compound": "CC(C)=CCCC(C)=CC=O", "recordedMeasurement": 0}
{"compound": "CC(O)C(=O)O (stereo not drawn)", "recordedMeasurement": 1}
{"compound": "O=C1CCO1", "recordedMeasurement": 0}
{"compound": "CCC/C=C/C=O [trans-2-Hexenal]", "recordedMeasurement": 0}
{"compound": "CC1=C(C=O)C(C)(C)CC=C1", "recordedMeasurement": 0}
{"compound": "O=c1c(-c2ccccc2)c1-c1ccccc1", "recordedMeasurement": 0}
{"compound": "C=C(C)C1CC=C(C=O)CC1 (stereo not drawn)", "recordedMeasurement": 0}
{"compound": "O=C1C=CC(=O)C=C1", "recordedMeasurement": 0}
{"compound": "O=C(O)c1ccccc1O", "recordedMeasurement": 1}
{"compound": "CCCCBr", "recordedMeasurement": 1}
{"compound": "C=CC(=O)OCC [Ethyl acrylate]", "recordedMeasurement": 0}
